Readings of Example 4 % MAFP @ 10 μM for the listed molecules
tested system: MGL activity in HeLa cell homogenate (Homo sapiens)
Construct: HeLa cells were homogenated with a Polytron; endogenous in cells; host or cells: HeLa cell homogenate
Sequence (Q99685 1-303): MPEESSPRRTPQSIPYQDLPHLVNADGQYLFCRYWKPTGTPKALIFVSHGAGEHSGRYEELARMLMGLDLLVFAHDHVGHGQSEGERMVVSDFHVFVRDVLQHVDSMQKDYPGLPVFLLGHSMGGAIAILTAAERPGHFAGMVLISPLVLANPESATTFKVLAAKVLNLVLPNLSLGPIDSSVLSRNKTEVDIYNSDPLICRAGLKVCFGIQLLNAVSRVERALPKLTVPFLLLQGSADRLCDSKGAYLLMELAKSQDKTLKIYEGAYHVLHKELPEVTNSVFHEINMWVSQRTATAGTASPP
protocol description: 2-AG Accumulation Assay in HeLa cell homogenate
Format: biochemical
test settings: compound 10 μM, accumulated 2-AG relative to MAFP 2-AG x100

record smiles | Example 4 % MAFP @ 10 μM
O=C(c1ccc2c(c1)cc(Cc1ccccc1)n2CC1CCCCC1)N1CC(N2CCN(c3ccccn3)CC2)C1 | 134.6 % MAFP
COc1cccc(-c2nc3cc(C(=O)N4CC(N5CCN(c6ccccn6)CC5)C4)ccc3o2)c1 | 86.9 % MAFP
COc1ccc(-c2nc3cccc(C(=O)N4CC(N5CCN(c6ccccn6)CC5)C4)c3o2)cc1 | 79.5 % MAFP
CC(C)Cn1c(COc2ccccc2)cc2cc(C(=O)N3CC(N4CCN(c5ccccn5)CC4)C3)ccc21 | 67.8 % MAFP
CC(C)(C)Cn1c(-c2ccccc2)cc2cc(C(=O)N3CC(N4CCN(c5ccc(F)cc5)CC4)C3)ccc21 | 65.8 % MAFP
O=C(c1cccc2nc(-c3cccc(F)c3)oc12)N1CC(N2CCN(c3ccccn3)CC2)C1 | 82.9 % MAFP
COc1ccccc1N1CCN(C2CN(C(=O)c3ccc4c(c3)cc(-c3ccccc3)n4CC(C)(C)C)C2)CC1 | 58.8 % MAFP
CC(C)(C)Cn1c(C(C)(C)C)cc2cc(C(=O)N3CC(N4CCN(c5ccccn5)CC4)C3)ccc21 | 37.0 % MAFP
COc1ccccc1N1CCN(C2CN(C(=O)c3ccc4c(c3)cc(Cc3ccccc3)n4CC3CCCCC3)C2)CC1 | 84.5 % MAFP
O=C(c1ccc2[nH]c(CC3CCCCC3)cc2c1)N1CC(N2CCN(c3ccccn3)CC2)C1 | 53.7 % MAFP
COc1ccccc1N1CCN(C2CN(C(=O)c3ccc4c(c3)cc(Cc3ccccc3)n4CC(C)C)C2)CC1 | 29.2 % MAFP
COc1ccccc1N1CCN(C2CN(C(=O)c3ccc4c(c3)cc(COc3ccccc3)n4CC(C)C)C2)CC1 | 25.9 % MAFP
O=C(c1ccc2nc(C3CCCCC3)oc2c1)N1CC(N2CCN(c3ccccn3)CC2)C1 | 87.6 % MAFP
Cn1c(CC2CCCC2)cc2cc(C(=O)N3CC(N4CCN(c5ccccn5)CC4)C3)ccc21 | 142.0 % MAFP
O=C(c1cccc2nc(-c3ccc(F)cc3)oc12)N1CC(N2CCN(c3ccccn3)CC2)C1 | 68.8 % MAFP
COc1ccccc1Cc1nc2cc(C(=O)N3CC(N4CCN(c5ccccn5)CC4)C3)ccc2o1 | 57.6 % MAFP
O=C(c1ccc2c(c1)cc(COc1ccccc1)n2CC1CCCCC1)N1CC(N2CCN(c3ccccn3)CC2)C1 | 160.1 % MAFP

Value source: patent US8729064B2
